- Tested on: phosphorylated ERK in MIA PaCa2 cells with Kras G12C mutation
- assay details: p-ERK HTRF assay for cells (Test Example 2)
- Assay type: cell-based, human
- conditions used: Homo sapiens, MIA PaCa-2, 2 h, MIA PaCa2 cells, 2 hours with compound; read-out: p-ERK IC50
In this scheme, each record receives a class according to its IC50; the ranges are L (below 90 nM), M (90 nM to below 200 nM), H (200 nM or more)

* C=CC(=O)N1CCN2c3c(c(=O)n(-c4c(C)ncnc4C(C)C)c4nc(-c5c(O)cccc5F)c(F)cc34)N(C)C(=O)[C@H]2C1 | H
* C=CC(=O)N1C[C@@H]2C(=O)Nc3c(c4cc(F)c(-c5c(O)cccc5F)nc4n(-c4c(C(C)C)ncnc4C(C)C)c3=O)N2C[C@H]1C | M
* C=CC(=O)N1CCN2c3c(c(=O)n(-c4c(C(C)C)ccnc4C(C)C)c4c(F)c(-c5c(O)cccc5F)c(Cl)cc34)N(C)C(=O)[C@H]2C1 | L
* C=CC(=O)N1CCN2c3c(c(=O)n(-c4c(C(C)C)ncnc4C(C)C)c4nc(-c5c(O)cccc5F)c(Cl)cc34)N(C)C(=O)[C@H]2C1 | L
* C=CC(=O)N1CCN2c3c(c(=O)n(-c4c(C)ccnc4C(C)C)c4nc(-c5c(O)cccc5F)c(F)cc34)NC(=O)CC2C1 (centres unmarked) | H
* C=CC(=O)N1C[C@@H]2C(=O)N(C)c3c(c4cc(F)c(-c5c(O)cccc5F)nc4n(-c4c(C)ccnc4C(C)C)c3=O)N2C[C@H]1C | L
* C=CC(=O)N1C[C@@H]2C(=O)N(C)c3c(c4cc(Cl)c(-c5c(O)cccc5F)c(F)c4n(-c4c(C(C)C)ncnc4C(C)C)c3=O)N2C[C@H]1C | L
* C=CC(=O)N1CCN2c3c(c(=O)n(-c4c(C)ccnc4C(C)C)c4nc(-c5c(O)cccc5F)c(F)cc34)N(CC)C(=O)[C@H]2C1 | H
* C=CC(=O)N1CCN2c3c(c(=O)n(-c4c(C)ccnc4C(C)C)c4nc(-c5c(O)cccc5F)c(Cl)cc34)NC(=O)[C@H]2C1 | M
* C=CC(=O)N1CCN2c3c(c(=O)n(-c4c(C5CC5)ncnc4C4CC4)c4nc(-c5c(O)cccc5F)c(Cl)cc34)N(C)C(=O)[C@H]2C1 | M
* C=CC(=O)N1CCN2c3c(c(=O)n(-c4c(C)ccnc4C(C)C)c4nc(-c5c(O)cccc5F)c(F)cc34)OC[C@H]2C1 [Compound Z1] | H
* [2H]C([2H])([2H])N1C(=O)[C@H]2CN(C(=O)C=C)[C@H](C)CN2c2c1c(=O)n(-c1c(C(C)C)ncnc1C(C)C)c1nc(-c3c(F)cccc3OC)c(F)cc21 [Compound Z44a] | M
* C=CC(=O)N1CCN2c3c(c(=O)n(-c4c(C)ccnc4C(C)C)c4nc(-c5c(O)cccc5F)c(F)cc34)N(C)C(=O)[C@H]2C1 [Compound Z9] | M
* C=CC(=O)N1CCN2c3c(c(=O)n(-c4c(C(C)C)ncnc4C(C)C)c4nc(-c5c(O)cccc5F)c(F)cc34)N(C)C(=O)[C@H]2C1 | H
* C=CC(=O)N1C[C@@H]2COc3c(c4cc(F)c(-c5c(F)cccc5OC)nc4n(-c4c(C)ccnc4C(C)C)c3=O)N2C[C@H]1C | H
* C=CC(=O)N1C[C@@H]2COc3c(c4cc(F)c(-c5c(O)cccc5F)nc4n(-c4c(C)ccnc4C(C)C)c3=O)N2C[C@H]1C | M
* C=CC(=O)N1CCN2c3c(c(=O)n(-c4c(C(C)C)ncnc4C(C)C)c4c(F)c(-c5c(O)cccc5F)c(Cl)cc34)NC(=O)[C@H]2C1 (single isomer, unassigned) | L
* C=CC(=O)N1CCN2c3c(c(=O)n(-c4c(C)ccnc4C(C)C)c4nc(-c5c(O)cccc5F)c(F)cc34)N(C)C(=O)CC2C1 (centres unmarked) | H
* C=CC(=O)N1C[C@@H]2C(=O)N(C)c3c(c4cc(F)c(-c5c(O)cccc5F)nc4n(-c4c(C)cc(C)nc4C(C)C)c3=O)N2C[C@H]1C | H
* [2H]C([2H])([2H])N1C(=O)[C@H]2CN(C(=O)C=C)CCN2c2c1c(=O)n(-c1c(C(C)C)ncnc1C(C)C)c1c(F)c(-c3c(O)cccc3F)c(Cl)cc21 (atropisomer, axis not shown; (aR)) | L
* C=CC(=O)N1C[C@@H]2C(=O)N(C)c3c(c4cc(F)c(-c5c(O)cccc5F)nc4n(-c4c(C(C)C)ncnc4C(C)C)c3=O)N2C[C@H]1C | L

----------
- assay details: Pharmacokinetic evaluation on mice, intragastric (PO) administration (Test Example 6)
- Format: in vivo
- conditions used: mouse; PO 15 mg/kg, male CD-1 mice, plasma; read-out: Tmax
Form field: Tmax (one value per entry).
readout: Tmax

* C=CC(=O)N1CCN2c3c(c(=O)n(-c4c(C(C)C)ncnc4C(C)C)c4nc(-c5c(O)cccc5F)c(Cl)cc34)N(C)C(=O)[C@H]2C1 | 0.5 h
* C=CC(=O)N1C[C@@H]2C(=O)N(C)c3c(c4cc(F)c(-c5c(O)cccc5F)nc4n(-c4c(C)ccnc4C(C)C)c3=O)N2C[C@H]1C (single isomer, unassigned) | 1 h
* C=CC(=O)N1CCN2c3c(c(=O)n(-c4c(C)ccnc4C(C)C)c4nc(-c5c(O)cccc5F)c(F)cc34)N(C)C(=O)[C@H]2C1 (single isomer, unassigned) | 1 h
* C=CC(=O)N1C[C@@H]2C(=O)N(C)c3c(c4cc(Cl)c(-c5c(O)cccc5F)nc4n(-c4c(C)ccnc4C(C)C)c3=O)N2C[C@H]1C (single isomer, unassigned) | 1.74 h
* C=CC(=O)N1CCN2c3c(c(=O)n(-c4c(C)ccnc4C(C)C)c4nc(-c5c(O)cccc5F)c(Cl)cc34)N(C)C(=O)[C@H]2C1 (single isomer, unassigned) | 1.93 h
* C=CC(=O)N1CCN2c3c(c(=O)n(-c4c(C)ccnc4C(C)C)c4nc(-c5c(O)cccc5F)c(F)cc34)OC[C@H]2C1 | 0.25 h

----------
- assay details: Pharmacokinetic evaluation on mice, intravenous administration (Test Example 6)
- Format: in vivo
- conditions used: mouse, plasma; male CD-1 mice, IV 2 mg/kg; read-out: T1/2 (half-life) (converted)
Form field: half-life (one value per entry).
readout: half-life (h)

• C=CC(=O)N1CCN2c3c(c(=O)n(-c4c(C)ccnc4C(C)C)c4nc(-c5c(O)cccc5F)c(F)cc34)N(C)C(=O)[C@H]2C1 (single isomer, unassigned) = 1.74
• C=CC(=O)N1CCN2c3c(c(=O)n(-c4c(C(C)C)ncnc4C(C)C)c4nc(-c5c(O)cccc5F)c(Cl)cc34)N(C)C(=O)[C@H]2C1 = 1.02
• C=CC(=O)N1C[C@@H]2C(=O)N(C)c3c(c4cc(Cl)c(-c5c(O)cccc5F)nc4n(-c4c(C)ccnc4C(C)C)c3=O)N2C[C@H]1C (single isomer, unassigned) = 1.08
• C=CC(=O)N1CCN2c3c(c(=O)n(-c4c(C)ccnc4C(C)C)c4nc(-c5c(O)cccc5F)c(Cl)cc34)N(C)C(=O)[C@H]2C1 (single isomer, unassigned) = 1
• C=CC(=O)N1C[C@@H]2C(=O)N(C)c3c(c4cc(F)c(-c5c(O)cccc5F)nc4n(-c4c(C)ccnc4C(C)C)c3=O)N2C[C@H]1C (single isomer, unassigned) = 0.941

----------
- Tested on: A549 cells with Kras G12S mutation
- assay details: Cell proliferation inhibition experiment, 3D spheroid, CellTiter-Glo (Test Example 1)
- Format: cell-based, human
- conditions used: 5 days
readout: IC50

- C=CC(=O)N1C[C@@H]2C(=O)Nc3c(c4cc(F)c(-c5c(O)cccc5F)nc4n(-c4c(C)ccnc4C(C)C)c3=O)N2C[C@H]1C (single isomer, unassigned) [Compound Z35-2]: > 30 µM
- C=CC(=O)N1CCN2c3c(c(=O)n(-c4c(C)ncnc4C(C)C)c4nc(-c5c(O)cccc5F)c(F)cc34)N(C)C(=O)[C@H]2C1 (single isomer, unassigned) [Compound Z21-2]: > 30 µM
- C=CC(=O)N1CC2C(=O)N(C)c3c(c4cc(F)c(-c5c(O)cccc5F)nc4n(-c4c(C(F)(F)F)ccnc4C(C)C)c3=O)N2C[C@H]1C (single isomer, unassigned) [Compound Z49-1]: 9.42 µM
- C=CC(=O)N1CCN2c3c(c(=O)n(-c4c(C(C)C)ncnc4C(C)C)c4c(F)c(-c5c(O)cccc5F)c(Cl)cc34)NC(=O)[C@H]2C1 (single isomer, unassigned) [Compound Z37-1]: > 30 µM
- C=CC(=O)N1CC2C(=O)N(C)c3c(c4cc(F)c(-c5c(O)cccc5F)nc4n(-c4c(C(F)(F)F)ccnc4C(C)C)c3=O)N2C[C@H]1C (single isomer, unassigned) [Compound Z49-2]: > 30 µM

Entry source: patent US12054497B2
